system: SK-MEL-5; experiment: NCI tumour cell line growth inhibition, 48 h
Calls of active or inactive are those of the source. No stated cut-off is given here; in the data, active = GI50 up to about 1.1 µM and inactive = higher.
Entries and their measured GI50 follow.

A selection of reference data follows.
CCC[C@@H](O)C[C@@H]1CCC[C@H](C[C@@H](O)CC)N1C ... > 100 µM (inactive)
CCN(CC)CCC/N=c1\c2cc(OC)ccc2[nH]c2c([N+](=O)[O-])ccc(NCCCN(CC)CC)c12 ... 9.42 µM (inactive)
CCOC(=O)c1[nH]c(-c2[nH]c(-c3[nH]c(-c4[nH]c(C(=O)OCC)c(C)c4C(=O)OCC)c(C(=O)OCC)c3C)c(C)c2C(=O)OCC)c(C(=O)OCC)c1C ... 50.4 µM (inactive)

Problem: Need GI50, item CSCSCC(CO)NC(=O)/C=C/c1c(C)nc(O)nc1O (stereo not drawn)
Solution: > 100 µM (inactive)

Problem: Need GI50, item N#CCC(=O)NC1C2CC3CC(C2)CC1C3 (stereo not drawn)
Solution: 14.6 µM (inactive)

Problem: Need GI50, item `COc1cc(Cc2cc3c(c(C(=O)O)c2Br)OCO3)cc(OC)c1OC`
Solution: 51.1 µM (inactive)

Problem: Need GI50, item `Cc1noc(NS(=O)(=O)c2ccc(NC(=O)c3ccc4nc5ccccc5c(Nc5ccc(S(=O)(=O)Nc6onc(C)c6C)cc5)c4c3)cc2)c1C`
Solution: 49.4 µM (inactive)

Problem: Need GI50, item COC(C)(C)C(O)C(O)C[C@H](C)C1CC=C2C1(C)CCC1[C@@]3(C)CCC(OC(C)=O)C(C)(C)C3CC(OC3OC(COC(C)=O)C(O)C(O)C3O)[C@@]21C (stereo partly drawn)
Solution: 2.21 µM (inactive)
